tested on: IGROV1 ovarian; assay: NCI tumour cell line growth inhibition, 48 h
Where a SMILES comes first, the peptide text is derived from it. The star is where a group is joined. OSu = O=C1CCC(=O)N1O*
METRIC_NAME: TGI

| COMPOUND | METRIC_NAME | OBSERVED_VALUE |
| --- | --- | --- |
| CCC(C)SC1SCC2C(=O)N(C)C3(CC3C)C(=O)OCC(NC(=O)c3nc4ccccc4cc3O)C(=O)NC(C)C(=O)N(C)C1C(=O)N(C)C1(CC1C)C(=O)OCC(NC(=O)c1nc3ccccc3cc1O)C(=O)NC(C)C(=O)N2C (centres undefined) | TGI | 3.54 µM |
| CCOC(=O)c1cn2c(n1)sc1cc(F)ccc12 | TGI | > 100 µM |
| c1ccc(-c2n(Cc3ccc4ccccc4n3)cc[n+]2Cc2ccc3ccccc3c2)cc1 | TGI | 2.43 µM |
| NCCCCC(NC(=O)C(N)Cc1ccc(O)cc1)C(=O)NC(CCCCN)C(=O)NC(CCCCN)C(=O)ON1C(=O)CCC1=O (centres undefined) (H-YKKK-OSu; configuration not given here) | TGI | > 100 µM |
| COc1ccc(C2=CC(C(C)=C(C(N)=O)C(N)=O)C=C(c3ccc(Br)cc3)C2)c(OC)c1 (centres undefined) | TGI | > 100 µM |
| CC1NC(=O)C(C)C(c2ccccc2)N(N=O)C1c1ccccc1 (centres undefined) | TGI | > 100 µM |
| NC(Cc1ccccc1)C(=O)NC(Cc1ccccc1)NC(=O)C(Cc1c[nH]c2ccccc12)C(=O)O (centres undefined) | TGI | > 100 µM |
| COc1cc(S(=O)(=O)Nc2ccc(-c3csc(N4C(=O)CSC4c4cccc(Oc5ccccc5)c4)n3)cc2)ccc1Cl (centres undefined) | TGI | > 100 µM |
| COc1cc2c(cc1OC)C(Cl)C(c1ccc(F)cc1)=C2Cl (centres undefined) | TGI | 37.2 µM |
| CC(=O)N[C@@H](Cc1ccc(OP(=O)(O)O)cc1)C(=O)N[C@H]1CCC(=O)N2CCC[C@@H](C(=O)Nc3cccc4ccccc34)N2C1=O | TGI | > 25 µM |

Enquiry: Let me know recorded TGI for Cc1[cH-]c(=O)n(-c2ccccc2)n1.[Au+].[Au].c1ccc([PH+](c2ccccc2)c2ccccc2)cc1.c1ccc([PH+](c2ccccc2)c2ccccc2)cc1 , thanks.
Return: 31.7 µM

Enquiry: # return recorded TGI for entry N#Cc1nc(-c2cnccn2)oc1N
Return: > 100 µM

Enquiry: Quote TGI reported for O=C1c2ccccc2C(=O)c2c(/C=C\N3CCCCC3)ccnc21 please.
Return: 36.8 µM
